This section presents compounds with their documented pIC50 values.
Molecular target: UniProtKB P09871
Sequence (P09871 438-688 limits assumed): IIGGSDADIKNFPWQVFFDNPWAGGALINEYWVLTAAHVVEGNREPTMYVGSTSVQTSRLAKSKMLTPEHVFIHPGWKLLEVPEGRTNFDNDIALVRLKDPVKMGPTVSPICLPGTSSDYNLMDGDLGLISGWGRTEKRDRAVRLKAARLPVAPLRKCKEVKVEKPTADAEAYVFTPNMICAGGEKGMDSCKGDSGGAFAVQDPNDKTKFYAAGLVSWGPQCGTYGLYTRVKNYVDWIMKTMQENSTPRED
Sequence (P09871 16-437 partner limits assumed): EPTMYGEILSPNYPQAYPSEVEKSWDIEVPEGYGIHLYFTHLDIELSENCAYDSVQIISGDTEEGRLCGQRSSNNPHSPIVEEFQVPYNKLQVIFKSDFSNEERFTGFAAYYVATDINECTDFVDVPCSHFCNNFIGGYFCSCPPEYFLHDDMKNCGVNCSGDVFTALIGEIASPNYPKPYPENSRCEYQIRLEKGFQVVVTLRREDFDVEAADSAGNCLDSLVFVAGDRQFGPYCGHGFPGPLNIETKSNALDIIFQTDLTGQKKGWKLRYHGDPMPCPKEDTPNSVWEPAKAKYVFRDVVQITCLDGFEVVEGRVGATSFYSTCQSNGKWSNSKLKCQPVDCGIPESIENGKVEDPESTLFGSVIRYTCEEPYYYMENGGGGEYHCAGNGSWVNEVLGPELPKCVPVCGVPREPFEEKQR
Test: Human C1s enzyme assay
Type: biochemical
Details: Human complement C1s enzyme 1.16 nM, substrate Z-L-Lys-SBzl 100 μM, assay of Example 3; read-out: IC50 (Stars)
pIC50: −log10 of the molar value.

Problem: Report pIC50 for COC[C@@H]1C[C@@H](C(=O)N[C@H](C)c2cc(C(=N)N)cs2)N(C(=O)CNC(=O)c2ccc3oc4ccccc4c3c2)C1 (relative stereo)
Solution: > 7.00

Problem: Report pIC50 for C[C@@H](NC(=O)[C@@H]1C[C@@H](OC(F)F)CN1C(=O)CNC(=O)c1ccc2c(c1)-c1ccccc1S2(=O)=O)c1cc(C(=N)N)cs1
Solution: > 7.00
